Each entry below carries its recorded OD490.
Molecular target: T1, M7-1
T1 construct: also called PD1 mutant M7-1
Experiment: ELISA, 1 ug/ml

// below: answered binders
PD1-45D6 (antibody, V domains shown, scFv-phage in the screening ELISA; whole IgG in the other assays) VH: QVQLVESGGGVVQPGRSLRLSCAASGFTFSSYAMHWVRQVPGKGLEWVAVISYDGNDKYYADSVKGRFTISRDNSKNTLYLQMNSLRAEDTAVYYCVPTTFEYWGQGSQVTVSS VL: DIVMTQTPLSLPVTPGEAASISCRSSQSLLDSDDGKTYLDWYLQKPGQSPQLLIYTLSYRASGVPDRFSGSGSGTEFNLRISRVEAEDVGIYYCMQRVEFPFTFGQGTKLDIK	1.3
PD1-49A2 (antibody, V domains shown, scFv-phage in the screening ELISA; whole IgG in the other assays; also called Parent 49A2) VH: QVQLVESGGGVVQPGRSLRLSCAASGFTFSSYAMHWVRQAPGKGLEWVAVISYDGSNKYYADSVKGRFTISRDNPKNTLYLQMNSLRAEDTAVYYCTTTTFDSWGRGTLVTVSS VL: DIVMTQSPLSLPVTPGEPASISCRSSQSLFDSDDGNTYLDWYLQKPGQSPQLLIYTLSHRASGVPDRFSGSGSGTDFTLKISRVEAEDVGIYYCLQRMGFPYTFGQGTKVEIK	0.5
PD1-41C9 (antibody, V domains shown, scFv-phage in the screening ELISA; whole IgG in the other assays) VH: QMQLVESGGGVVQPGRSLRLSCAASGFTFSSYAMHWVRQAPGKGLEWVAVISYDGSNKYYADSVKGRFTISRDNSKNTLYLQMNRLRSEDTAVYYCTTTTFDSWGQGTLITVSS VL: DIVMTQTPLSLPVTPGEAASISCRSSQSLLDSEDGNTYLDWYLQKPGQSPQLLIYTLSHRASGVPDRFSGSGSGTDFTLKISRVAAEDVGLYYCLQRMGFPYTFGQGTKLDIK	1.2

# OD490 lookup, item PD1-52E8 (antibody, V domains shown, scFv-phage in the screening ELISA; whole IgG in the other assays) VH: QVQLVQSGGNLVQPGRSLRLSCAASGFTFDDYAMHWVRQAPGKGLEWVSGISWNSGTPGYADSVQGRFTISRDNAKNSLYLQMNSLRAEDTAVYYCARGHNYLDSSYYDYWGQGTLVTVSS VL: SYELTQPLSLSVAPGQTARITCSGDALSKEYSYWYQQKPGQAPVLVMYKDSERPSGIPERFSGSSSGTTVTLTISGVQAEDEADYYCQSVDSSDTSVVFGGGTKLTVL
1.1
